Details: 318.15 K; 101.33 kPa; Liquid; conductivity meter (DDJS-308A)
Binary call on electrical conductivity with cut-off 0.009 S/m: strictly below means TRUE, and equality or higher means FALSE.

[[record]]
compound = "C[N+](C)(C)CCO.N[C@@H](CO)C(=O)[O-] [2-hydroxy-N,N,N-trimethylethanaminium L-serinate]"
class = "TRUE"

[[record]]
compound = "C[C@H](N)C(=O)[O-].C[N+](C)(C)CCO [2-hydroxy-N,N,N-trimethylethanaminium L-alaninate]"
class = "FALSE"

[[record]]
compound = "C[N+](C)(C)CCO.NCC(=O)[O-] [2-hydroxy-N,N,N-trimethylethanaminium glycinate]"
class = "FALSE"

[[record]]
compound = "C[N+](C)(C)CCO.O=C([O-])[C@@H]1CCCN1 [2-hydroxy-N,N,N-trimethylethanaminium L-prolinate]"
class = "TRUE"


All figures here come from the NIST ThermoML archive (doi:10.1021/je301103d).
